Origin of the recorded values: paper PMC5440690

Target: Sirt1 (Mus musculus, UniProt Q923E4)
Construct: full-length recombinant Sirt1
Sequence (Q923E4 2-737): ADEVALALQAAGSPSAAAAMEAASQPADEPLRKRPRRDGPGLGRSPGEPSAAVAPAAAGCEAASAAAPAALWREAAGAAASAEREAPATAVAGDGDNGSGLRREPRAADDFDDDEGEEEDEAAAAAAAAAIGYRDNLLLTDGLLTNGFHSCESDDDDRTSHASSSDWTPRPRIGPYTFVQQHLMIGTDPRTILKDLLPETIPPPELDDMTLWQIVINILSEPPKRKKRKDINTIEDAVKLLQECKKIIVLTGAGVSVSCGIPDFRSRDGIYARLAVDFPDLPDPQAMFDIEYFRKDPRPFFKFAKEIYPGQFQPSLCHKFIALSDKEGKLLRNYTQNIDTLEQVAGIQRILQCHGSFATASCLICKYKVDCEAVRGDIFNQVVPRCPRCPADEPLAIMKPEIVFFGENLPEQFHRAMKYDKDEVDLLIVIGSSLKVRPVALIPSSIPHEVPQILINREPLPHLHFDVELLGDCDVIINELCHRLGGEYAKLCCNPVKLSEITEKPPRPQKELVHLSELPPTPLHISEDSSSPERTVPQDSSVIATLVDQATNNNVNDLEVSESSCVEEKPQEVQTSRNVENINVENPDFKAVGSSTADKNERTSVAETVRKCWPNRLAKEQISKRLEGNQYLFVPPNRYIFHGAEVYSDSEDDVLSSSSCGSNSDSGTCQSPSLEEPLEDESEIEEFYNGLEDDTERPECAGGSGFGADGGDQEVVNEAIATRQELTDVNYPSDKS
Assay: gel-filtration (spin column) binding with [γ-32P]ATP; also ATP-agarose pull-down with free ATP competition, and enzyme inhibition
METRIC: Kd

> print(dat)
                               query.smiles  metric   result
1  Nc1ncnc2c1ncn2[C@@H]1O[C@H](COP(=O)(O)OP(=O)(O)OP(=O)(O)O)[C@@H](O)[C@H]1O      Kd  ~4.6 mM

====

Molecular target: 2A Sirt1 (Mus musculus, UniProt Q923E4, S649A/S651A)
Construct: full-length recombinant 2A Sirt1
Sequence (Q923E4 whole entry S649A/S651A): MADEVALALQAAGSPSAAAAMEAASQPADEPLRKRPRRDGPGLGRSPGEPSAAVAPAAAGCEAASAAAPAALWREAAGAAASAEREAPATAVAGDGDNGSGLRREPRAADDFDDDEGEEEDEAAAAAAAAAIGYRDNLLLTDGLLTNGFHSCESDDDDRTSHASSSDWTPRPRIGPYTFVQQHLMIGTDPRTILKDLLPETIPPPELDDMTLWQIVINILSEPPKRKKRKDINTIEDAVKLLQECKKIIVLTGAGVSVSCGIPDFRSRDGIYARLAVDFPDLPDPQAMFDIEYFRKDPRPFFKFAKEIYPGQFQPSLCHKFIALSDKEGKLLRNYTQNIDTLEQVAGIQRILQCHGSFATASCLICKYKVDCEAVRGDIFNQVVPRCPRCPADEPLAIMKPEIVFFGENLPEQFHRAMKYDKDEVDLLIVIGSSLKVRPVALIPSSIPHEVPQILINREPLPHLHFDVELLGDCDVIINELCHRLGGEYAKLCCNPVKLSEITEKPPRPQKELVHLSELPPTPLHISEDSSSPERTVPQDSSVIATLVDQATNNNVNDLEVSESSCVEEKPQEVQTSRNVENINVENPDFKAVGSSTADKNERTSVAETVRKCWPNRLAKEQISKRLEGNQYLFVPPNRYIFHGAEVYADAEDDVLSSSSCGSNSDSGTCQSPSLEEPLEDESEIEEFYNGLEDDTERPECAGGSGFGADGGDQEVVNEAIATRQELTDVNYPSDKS
Test: deacetylation of [3H]Ac-H4, inhibition kinetics (Kii); weakened ATP-agarose binding
pKi: −log10 of the molar value.
METRIC: pKi

> print(dat)
                               query.smiles  numeric.value
1  Nc1ncnc2c1ncn2[C@@H]1O[C@H](COP(=O)(O)OP(=O)(O)OP(=O)(O)O)[C@@H](O)[C@H]1O           2.19
